target: recombinant MARK3 enzyme (Homo sapiens (Human), UniProt P27448); test: MARK 3 Assay (HTRF, Cdc25C biotinylated peptide substrate); settings: MARK3, 10 μM ATP, 1 μM peptide substrate, 2 hours at 25° C.
Sequence (P27448 whole entry, species assumed): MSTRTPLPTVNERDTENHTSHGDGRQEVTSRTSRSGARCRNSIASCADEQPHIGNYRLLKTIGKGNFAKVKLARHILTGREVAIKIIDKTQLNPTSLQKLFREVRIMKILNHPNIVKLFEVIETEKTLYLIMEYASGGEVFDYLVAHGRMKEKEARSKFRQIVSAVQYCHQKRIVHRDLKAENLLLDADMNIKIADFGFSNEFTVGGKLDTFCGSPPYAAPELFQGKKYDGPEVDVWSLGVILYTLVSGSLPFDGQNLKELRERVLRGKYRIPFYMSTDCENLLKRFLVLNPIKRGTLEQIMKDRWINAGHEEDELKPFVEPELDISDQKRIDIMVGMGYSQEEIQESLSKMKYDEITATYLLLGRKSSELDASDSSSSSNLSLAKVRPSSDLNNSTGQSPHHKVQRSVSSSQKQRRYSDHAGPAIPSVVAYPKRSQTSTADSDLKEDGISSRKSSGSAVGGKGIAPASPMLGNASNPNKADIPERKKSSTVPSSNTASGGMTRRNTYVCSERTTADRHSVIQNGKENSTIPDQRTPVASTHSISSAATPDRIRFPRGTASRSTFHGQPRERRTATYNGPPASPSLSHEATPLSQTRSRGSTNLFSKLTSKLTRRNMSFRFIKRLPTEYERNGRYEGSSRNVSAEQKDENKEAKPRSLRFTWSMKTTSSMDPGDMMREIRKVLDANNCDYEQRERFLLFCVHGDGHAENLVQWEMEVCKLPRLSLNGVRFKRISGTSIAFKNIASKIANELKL
Where a name gives a salt, the structure may show the parent alone.
Please provide measured IC50 for the entries that follow.
Write the number in nM without appending the unit.

[in] GET IC50 | system: recombinant MARK3 enzyme (Homo sapiens (Human), UniProt P27448) | item: N[C@H]1CCCC(F)(F)[C@@H]1NC(=O)c1cc(-c2cnc3ccccn23)cs1 [Example 14]
[out] 15

[in] Enter IC50 (test system recombinant MARK3 enzyme (Homo sapiens (Human), UniProt P27448)) for Cc1sc(C(=O)N[C@@H]2[C@H](N)CCCC2(F)F)cc1-c1cnc2cccnn12 [Example 1]
[out] 20

[in] GET IC50 where system = recombinant MARK3 enzyme (Homo sapiens (Human), UniProt P27448) and item = N[C@@H]1CCCC(F)(F)[C@@H]1NC(=O)c1cc(-c2cnc3cc(-c4ccc(F)cc4)cnn23)cs1 [Example 8, trifluoroacetate]
[out] 0.5

[in] Find the measured IC50 of CCc1sc(C(=O)N[C@@H]2[C@H](N)CCCC2(F)F)cc1-c1cnc2cc(C(F)(F)F)cnn12 [Example 24] with recombinant MARK3 enzyme (Homo sapiens (Human), UniProt P27448) as test system.
[out] 140

[in] Give reported IC50 for N[C@H]1CCCC(F)(F)[C@@H]1NC(=O)c1nc(-c2cnc3ccccn23)c(Cl)s1 [Example 29] (recombinant MARK3 enzyme (Homo sapiens (Human), UniProt P27448))
[out] 720
